# SYSTEM: T1, mucin subtype 5AC (human, UniProt P98088 28-5654, limits assumed)
# T1 construct: Not a purified recombinant protein; also called MUC5AC; crude extract antigen solution
# TEST_PROTOCOL: ELISA, plate coated with crude extract antigen solution of SW1990 xenograft tumor, HRP anti-human IgG
# Method: Various antibodies were added to a 96 well plate coated with various antigens, and the plate was left standing for 1 hr at room temperature. The plate was washed, a blocking solution was added, and the mixture was left standing for 30 min at room temperature. […] The plate was washed, a color development reagent (Bethyl Laboratories, Inc.) was added, and the degree of color development was measured by a microplate reader (VersaMax, Molecular Devices, LLC.). […]
Entries and their measured in vitro binding activity ratio to antibody 9 follow.
PROPERTY_NAME: in vitro binding activity ratio to antibody 9 (fold vs antibody 9)

BINDER	UNIT_ANNOTATION	NUMERIC_RESULT
antibody 14 (antibody, V domains shown, Humanized antibody of the invention; also called H04L02) VH: EVQLLESGGGLVQPGGSLRLSCAVSGFTFSNYGMSWVRQAPGKGLEWVSTISNSGRYTYFPDSVKGRFTISRDNSRNTLYLQMNTLRAEDTAVYYCTRHLDYANYDAMDYWGQGTPVTVSS VL: DVVMTQSPSTLSASVGDRVTITCRASKSVTTSDFSYMHWYQQKPGQAPKLLIYLASNLESGVPSRFSGSGSGTDFTLTISSLQPEDFATYYCQHSREFPWTFGQGTKLEIK	fold vs antibody 9	1.04
antibody 10 (antibody, V domains shown, Humanized antibody of the invention; also called H03L02) VH: LVQLVESGGGVVQPGRSLRLSCAASGFTFSNYGMSWVRQAPGKGLEWVATISNSGRYTYFPDSVKGRFTISRDNSKNTLYLQMNSLRAEDTAVYYCTRHLDYANYDAMDYWGQGTLVTVSS VL: DVVMTQSPSTLSASVGDRVTITCRASKSVTTSDFSYMHWYQQKPGQAPKLLIYLASNLESGVPSRFSGSGSGTDFTLTISSLQPEDFATYYCQHSREFPWTFGQGTKLEIK	fold vs antibody 9	0.96
antibody 16 (antibody, V domains shown, Humanized antibody of the invention; also called H04L04) VH: EVQLLESGGGLVQPGGSLRLSCAVSGFTFSNYGMSWVRQAPGKGLEWVSTISNSGRYTYFPDSVKGRFTISRDNSRNTLYLQMNTLRAEDTAVYYCTRHLDYANYDAMDYWGQGTPVTVSS VL: DIVMTQSPDSLAVSLGERATINCKASKSVTTSDFSYLHWYQQKPGQPPKLLIYLASNLESGVPDRFSGSGSGTDFTLTISSLQAEDVAVYYCQHSREFPWTFGGGTKLEIK	fold vs antibody 9	0.88
antibody 12 (antibody, V domains shown, Humanized antibody of the invention; also called H03L04) VH: LVQLVESGGGVVQPGRSLRLSCAASGFTFSNYGMSWVRQAPGKGLEWVATISNSGRYTYFPDSVKGRFTISRDNSKNTLYLQMNSLRAEDTAVYYCTRHLDYANYDAMDYWGQGTLVTVSS VL: DIVMTQSPDSLAVSLGERATINCKASKSVTTSDFSYLHWYQQKPGQPPKLLIYLASNLESGVPDRFSGSGSGTDFTLTISSLQAEDVAVYYCQHSREFPWTFGGGTKLEIK	fold vs antibody 9	0.91
